Experiment: growth inhibitors of H69AR lung tumor, primary screen, human, duplicate replicates (AID 580);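 further: 100% = mean luminescence of untreated wells and 0% = no signal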
Conditions: H69AR lung tumor cells viability, ATP luminescence, 72 h; at 10 µM
Active and inactive are the calls of the source.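 How the source made its calls: active means viability at or under a set limit in both replicates, limit being median viability minus 3 SD (cut at about 48% in these data, passing the limit was not always enough); inconclusive means at or under the limit in just one replicate; inactive means at or above the limit in both replicates.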
A correct response names exactly one class from 1 (active), -1 (inactive)

Examples from the recorded data:
Outcome logged for Cc1cccc(-c2noc(CCC(=O)Nc3ccccc3)n2)c1 in this assay: -1

Assay outcome for Cc1cc(-c2ccc(F)cc2)nc2cc(C(N)=O)nn12 : what was it? -1

Could you check what this test reported for O=C(C1CCC1)N1CCc2cc(S(=O)(=O)N3CCc4ccccc4C3)ccc21 ? -1

Fill in: this test's call for Cc1ccc2[nH]c(=O)c(CN(Cc3ccc4c(c3)OCO4)Cc3nnnn3Cc3ccco3)cc2c1 is ___ -1

What outcome does the record of this test show for Cc1ccc2c(c1)-c1cc(C)nn1C(c1ccc3c(c1)OCO3)N2 (configuration not stated) ? -1

Any idea what this test logged for O=C(c1cnn2c(C(F)F)cc(C3CC3)nc12)N1CCOCC1 ? -1

Tell me the assay call for CCOc1ccc(N(C(C)=O)C2C=CS(=O)(=O)C2)cc1 (configuration not stated) please. -1

Recorded call for O=C(CN1CCC(NC(=O)c2ccc(F)cc2)CC1)NCc1ccccc1F ? -1

# outcome recorded in this test, key = Cc1nnc(SCc2ccccc2)n1N -1

Assay result, entry COc1ccc(OC)c(S(=O)(=O)N2CCC(C(=O)NCC3CCCO3)CC2)c1 (configuration not stated) — outcome? -1

---
Check the results log: what was the call for Cc1ccc(N2CC(C(=O)N3CCN(C(=O)c4ccco4)CC3)CC2=O)cc1 (configuration not stated) ? -1

Outcome logged for CCC(c1nnnn1Cc1ccco1)N(CCc1ccccc1)Cc1cc2cccc(C)c2[nH]c1=O (configuration not stated) in this assay: -1

So what was the verdict on CCOC(=O)c1cc2sccc2n1CC(=O)Nc1ccc(OC)cc1OC in this test? -1

* * *

Experiment: growth suppression of yeast trafficking mutant, preliminary HTS, modulators of trafficking downstream of Golgi apparatus project, 1536-format plate, OD 615 nm (AID 637)
Settings: yeast transport mutant growth, absorbance 615 nm, 18 h; active compounds read high
observation type: inhibition (%)
Number only, in %; omit the unit.

Use these answered entries as a reference point.
Any idea what its inhibition is? The molecule is Cc1nn(-c2ccc(F)cc2)c2sc(C(=O)O)cc12 1.64

Requested read-out: inhibition. Entry: CCOC(=O)c1[nH]c2ccccc2c1NC(=O)c1ccco1 4.33

***
So what does the record say about inhibition for O=S(=O)(c1ccc(Br)s1)N1CCCCC1 ? -2.13

Please report the recorded inhibition for COC(=O)c1ccc(C)c(NS(=O)(=O)c2ccc3c(c2)OCCO3)c1 . -3.67

Any idea what inhibition was measured for Cc1ccc(NC(=O)CSc2nnc(-c3ccncc3)n2C)cc1C ? 25.9

// returns reported inhibition for input CC(C)c1ccc(S(=O)(=O)N2CCN(C(=O)c3cccc(F)c3)CC2)cc1 3.28

# query: inhibition of entry O=C(O)CCCC(=O)Nc1ccc(Br)cc1C(=O)O -0.16

Reported inhibition, molecule COc1ccccc1-n1cnc(N)c1C(C)=O : ____ 7.7

Form field: reported inhibition of O=C(O)CC1CCCC(c2ccccc2)C1=O (stereo not given) -9.35

* * *

Assay: HUVEC growth inhibition – cell-based, human, primary screen (AID 575);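 further: 100% = median of untreated cell wells with 0.1% DMSO on each plate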
Details: HUVEC proliferation, CellTiter-Glo luminescence, 72 h; at 10 µM; active compounds read low
viability overview
Answer with a number only, understood to be in %.

Which viability value is on record for COc1ccc(-c2c(C(F)(F)F)oc3c(CN4CCN(C)CC4)c(O)ccc3c2=O)cc1 ? 87.9

Item under review: Cc1cc(C)c2c(n1)nn1c(N3CCN(c4cccc(Cl)c4)CC3)cc(C)nc21 . Reported viability? 61.8

What value of viability has been reported for the following compound? CCOC(=O)Nc1ccc2c(CN3C(=O)NC4(CCCC4)C3=O)cc(=O)oc2c1 89.2

Item O=S(=O)(c1ccc(S(=O)(=O)N2CCN3CCCC3C2)cc1)N1CCCC1 (stereo not given) has what recorded viability? 104

Which viability value is on record for COCCn1c(SCC(=O)c2ccccc2)nc2c(c1=O)SC(C)C2 (stereo not given) ? 98.9

***
What does the record list as viability for COc1ccc(C)cc1NC(=O)c1nc2nc(C)cc(C)n2n1 ? 73

Give the measured viability of COC(=O)C(NC(C)=O)(Nc1ccccn1)C(F)(F)F (stereo not given) . 105

So what does the record say about viability for COC(=O)c1c(C#N)c(N)nc2c1CCC2 ? 90.6

I am curious: what viability value has been reported for O=C(c1ccccc1)c1ccc2nc[nH]c2c1 ? 75.4

Entry CCOC(=O)c1sc(C)c2c1NC(C)(c1cccs1)NC2=O (stereo not given) : reported viability = ? 83.6

Find the recorded viability belonging to Cc1ccc(C(=O)N2CCCC(c3nc4c(nnn4Cc4ccccc4)c(=O)[nH]3)C2)cc1 (stereo not given) and report it. 110

* * *

Test: HUVEC growth inhibition – cell-based, human, primary screen (AID 575);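 further: 100% = median of untreated cell wells with 0.1% DMSO on each plate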
Settings: HUVEC proliferation, CellTiter-Glo luminescence, 72 h; at 10 µM; active compounds read low
# key: entry, value: viability
# value in %; strip the unit string

Entry under review: Cc1cc(C)n(-c2ccc(C(=O)Nc3ccc4c(c3)OCCO4)cc2)n1 . Reported viability? 62.2

Would you mind telling me what viability value was observed for CCCNc1nc2c(c(=O)n(C)c(=O)n2C)n1Cc1cccc(C)c1 ? 83.7

Requested field: viability. Item: CCOc1cc(-c2nc(-c3ccccc3OC)no2)cc(OCC)c1OCC 97.4

Can you share its viability? I mean this compound: O=C1CCC(=O)N1OCCCCOc1ccccc1 107

Reported viability, compound O=C1CCc2cc(S(=O)(=O)N3CCC(C(=O)NCc4ccccn4)CC3)ccc2N1 : ____ 98

Continuing:
Item under review: O=C(CSc1nc2ccccc2n1CC(=O)N1CCCC1)Nc1nccs1 . Reported viability? 98.4

Fill blank: measured viability of the compound CCC(C)(C(=O)NC1CCCCC1)N(CC1CCCO1)C(=O)c1ccccn1 (centres undefined) is ____. 91.6

Quick check: viability of CCC(NC(=O)Nc1cc(OC)c(OC)c(OC)c1)(C(F)(F)F)C(F)(F)F ? 105

# viability lookup, item CCn1c(=O)cc(OCC(=O)NCCCN2CC(C)CC(C)C2)c2ccccc21 (centres undefined) 81.3

Reported viability for Cc1cccc(C2CC(c3ccc(Br)cc3)Nc3nc(N)nn32)c1 (centres undefined) : what is it? 72.6

# get_value(readout='viability', item= COC(=O)Nc1ccccc1C(=O)N1CCCCC1 ) 95.8

Please report the recorded viability for CC1=C/C(=C/N(C)c2ccccc2)C(=O)S1 . 79.7

State the recorded viability for this entry: CCC(C)c1ccc(NC(=O)c2cccnc2)cc1 (centres undefined) 81.6

* * *

Assay: 384-well plate pilot, post-Golgi transport modulator project, inhibition of yeast transport mutant growth (AID 636)
Details: absorbance 615 nm, about 18 h, active compounds read high
# maps each entry to its inhibition
Hi! Could you send only the number? It should be in %, unit omitted.

Below are worked cases with known answers.
Query (compound): CN(C)c1ccc(NC(=O)CSCc2nc3c(nnn3Cc3ccc(F)cc3)c(=O)[nH]2)cc1 ; field requested: inhibition -6.49

Look up inhibition for this compound: Cc1oc(-c2ccc(Cl)cc2)nc1CS(=O)CC(=O)NCCCN(C)C1CCCCC1 (centres undefined) -2.99

For COC(=O)c1ccc(-c2ccc(CNCC(O)c3ccccc3)o2)cc1 (centres undefined) , what is its reported inhibition? -2.03

Now consider a different compound.
Endpoint output: inhibition of Cc1cc(C(=O)CSCc2nnc3n(CCC(C)C)c(=O)c4ccccc4n23)c(C)n1C . Value? -1.84

* * *

Biological target: Receptor tyrosine-protein kinase erbB-2 (Homo sapiens) (UniProt P04626)
Sequence (P04626 whole entry, looked up): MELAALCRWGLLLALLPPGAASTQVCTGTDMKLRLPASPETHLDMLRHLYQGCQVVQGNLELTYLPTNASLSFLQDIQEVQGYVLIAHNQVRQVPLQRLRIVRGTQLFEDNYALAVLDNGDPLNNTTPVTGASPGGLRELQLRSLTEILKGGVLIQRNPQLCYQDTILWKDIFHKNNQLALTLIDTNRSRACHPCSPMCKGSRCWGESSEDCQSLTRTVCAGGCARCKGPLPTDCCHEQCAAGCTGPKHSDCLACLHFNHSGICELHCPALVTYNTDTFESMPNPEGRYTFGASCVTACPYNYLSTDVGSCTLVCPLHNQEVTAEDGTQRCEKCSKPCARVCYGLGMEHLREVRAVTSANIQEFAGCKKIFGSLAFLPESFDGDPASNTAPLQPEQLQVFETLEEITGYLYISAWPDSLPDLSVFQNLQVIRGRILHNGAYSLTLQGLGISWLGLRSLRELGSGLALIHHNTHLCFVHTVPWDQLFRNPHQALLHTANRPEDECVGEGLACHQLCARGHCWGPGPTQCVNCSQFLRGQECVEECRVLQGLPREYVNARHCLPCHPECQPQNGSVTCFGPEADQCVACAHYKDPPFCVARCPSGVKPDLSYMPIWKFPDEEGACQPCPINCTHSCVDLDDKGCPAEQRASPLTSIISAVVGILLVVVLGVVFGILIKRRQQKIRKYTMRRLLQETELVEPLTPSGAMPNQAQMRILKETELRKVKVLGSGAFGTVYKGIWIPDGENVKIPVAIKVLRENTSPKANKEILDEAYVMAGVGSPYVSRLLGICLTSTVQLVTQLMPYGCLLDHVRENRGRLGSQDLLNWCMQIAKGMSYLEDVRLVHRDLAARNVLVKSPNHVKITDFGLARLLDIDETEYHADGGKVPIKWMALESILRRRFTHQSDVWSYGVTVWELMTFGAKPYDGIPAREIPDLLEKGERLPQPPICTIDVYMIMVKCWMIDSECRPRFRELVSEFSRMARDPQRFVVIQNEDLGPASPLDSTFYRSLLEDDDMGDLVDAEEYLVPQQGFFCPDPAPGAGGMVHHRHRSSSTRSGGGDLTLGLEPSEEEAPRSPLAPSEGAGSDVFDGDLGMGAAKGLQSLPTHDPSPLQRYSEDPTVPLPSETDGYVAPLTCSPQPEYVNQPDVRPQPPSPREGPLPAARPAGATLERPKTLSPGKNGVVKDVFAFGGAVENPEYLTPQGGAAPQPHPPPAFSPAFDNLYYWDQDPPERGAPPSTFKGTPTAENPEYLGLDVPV
Test: reducers of endogenous Her2 protein level, primary screen, SKBR3 breast tumor cells, AlphaScreen, ATP viability (AID 461);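 further: lower value means less Her2 protein in the cells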
Details: 18-24 h, at 10 µM, active compounds read low
Her2 level values by entry
Numeric only. Scale: %

Here are 5 compounds together with their reported answers.
Item under review: Cc1ncc(CSc2nc3ccccc3[nH]2)c(N)n1 . Reported Her2 level? 92.5

What Her2 level value was documented for this compound, Cn1c(=O)c2c(nc(SCC(=O)O)n2Cc2cccc(C(F)(F)F)c2)n(C)c1=O ? 84

May I ask what Her2 level has been recorded for COc1cc(Cn2c(C(=O)O)cc3sccc32)cc(OC)c1OC ? 102

I am curious: what Her2 level value has been reported for CC(C(=O)N1CCCCC1)n1ncn2cccc2c1=O (stereo unspecified) ? 93.5

Endpoint output: Her2 level of Cc1cccc(C)c1NC(=O)CS(=O)CC(=O)NC1CCCc2ccccc21 (stereo unspecified) . Value? 82.5

---
Which Her2 level is listed for CCSc1nnc(NC(=O)CCNS(=O)(=O)c2cc(Br)cnc2N)s1 ? 107
